Recorded melting point, one value per entry.
Where a name gives a salt, the structure may show the parent alone.
property label: melting point

molecule="CCN1C(=O)C(CC(=O)O)Cc2ccc(OCCCNC(=N)N)cc21.O=C(O)C(F)(F)F (stereo not shown)" measured_value="165 to 166 °C"
molecule="N=C(N)NCCCCc1ccc2c(c1)NC(=O)C(CC(=O)O)C2.O=C(O)C(F)(F)F (stereo not shown)" measured_value="157 to 160 °C"
molecule=CCn1c(=O)c(CC(=O)O)cc2ccc(OCCCNC(=N)N)cc21.O=C(O)C(F)(F)F measured_value="131 °C"
molecule="NCCCOc1ccc2c(c1)NC(=O)C(CC(=O)O)C2 (stereo not shown) (as salt: salt)" measured_value="194 to 196 °C"
molecule="N=C(N)NCCCOc1ccc2c(c1)N(Cc1ccccc1)C(=O)C(CC(=O)O)C2 (stereo not shown)" measured_value="172 to 173 °C"
molecule="N=C(N)NCCCCCOc1cccc2c1NC(=O)C(CC(=O)O)C2 (stereo not shown) (as salt: salt)" measured_value="126 to 131 °C"
molecule="N=C(N)NCCCCOc1ccc2c(c1)CC(CC(=O)O)C(=O)N2 (stereo not shown) (as salt: salt)" measured_value="170 to 173 °C"
molecule="N=C(N)NCCCOc1cccc2c1NC(=O)C(CC(=O)O)C2 (stereo not shown)" measured_value="151 to 155 °C"
molecule="N=C(N)NCCCCOc1ccc2c(c1)CC(CCC(=O)O)C(=O)N2 (stereo not shown)" measured_value="152 to 155 °C"
molecule=N=C(N)NCCCOc1ccc2cc(CC(=O)O)c(=O)[nH]c2c1.O=C(O)C(F)(F)F measured_value="195 to 198 °C"

* * *

biological target: Vitronectin Receptor (αVβ3) (Homo sapiens, UniProt P05106+P06756); construct: expressed in transfected cells; host or cells: 512P5 cells (plasma membrane preparation); assay: Vitronectin Receptor (αVβ3) Binding Test Procedure; settings: @ 30 μM; % Max = percentage of the specific binding; read-out: (αVβ3) RECEPTOR BINDING, % @ concentration
Sequence (P06756 31-889 limits assumed): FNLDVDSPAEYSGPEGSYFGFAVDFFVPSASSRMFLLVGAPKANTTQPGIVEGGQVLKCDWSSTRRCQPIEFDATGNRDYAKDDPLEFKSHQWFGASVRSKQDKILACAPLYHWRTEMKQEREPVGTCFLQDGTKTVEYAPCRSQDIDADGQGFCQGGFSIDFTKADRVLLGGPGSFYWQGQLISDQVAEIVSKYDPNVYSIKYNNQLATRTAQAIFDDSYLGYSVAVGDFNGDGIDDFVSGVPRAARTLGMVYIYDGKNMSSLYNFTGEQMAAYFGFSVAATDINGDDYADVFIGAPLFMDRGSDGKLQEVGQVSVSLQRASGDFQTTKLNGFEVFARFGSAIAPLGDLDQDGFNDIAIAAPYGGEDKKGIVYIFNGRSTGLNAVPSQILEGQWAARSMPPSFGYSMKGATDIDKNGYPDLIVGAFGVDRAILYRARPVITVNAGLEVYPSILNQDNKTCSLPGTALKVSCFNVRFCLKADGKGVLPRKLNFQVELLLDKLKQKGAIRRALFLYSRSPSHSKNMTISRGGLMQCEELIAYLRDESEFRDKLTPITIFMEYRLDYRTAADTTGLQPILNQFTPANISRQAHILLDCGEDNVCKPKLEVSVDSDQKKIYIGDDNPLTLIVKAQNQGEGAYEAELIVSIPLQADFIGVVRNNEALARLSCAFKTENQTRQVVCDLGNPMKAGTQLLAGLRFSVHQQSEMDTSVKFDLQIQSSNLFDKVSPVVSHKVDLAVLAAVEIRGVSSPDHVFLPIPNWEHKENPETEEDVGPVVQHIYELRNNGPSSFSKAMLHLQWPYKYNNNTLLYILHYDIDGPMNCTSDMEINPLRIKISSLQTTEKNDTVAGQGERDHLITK
Sequence (P06756 891-1048 partner limits assumed): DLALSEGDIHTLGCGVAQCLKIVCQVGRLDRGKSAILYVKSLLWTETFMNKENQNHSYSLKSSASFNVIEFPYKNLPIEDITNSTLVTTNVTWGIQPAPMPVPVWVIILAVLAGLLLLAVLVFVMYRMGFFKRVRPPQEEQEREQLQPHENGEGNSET
Sequence (P05106 27-788): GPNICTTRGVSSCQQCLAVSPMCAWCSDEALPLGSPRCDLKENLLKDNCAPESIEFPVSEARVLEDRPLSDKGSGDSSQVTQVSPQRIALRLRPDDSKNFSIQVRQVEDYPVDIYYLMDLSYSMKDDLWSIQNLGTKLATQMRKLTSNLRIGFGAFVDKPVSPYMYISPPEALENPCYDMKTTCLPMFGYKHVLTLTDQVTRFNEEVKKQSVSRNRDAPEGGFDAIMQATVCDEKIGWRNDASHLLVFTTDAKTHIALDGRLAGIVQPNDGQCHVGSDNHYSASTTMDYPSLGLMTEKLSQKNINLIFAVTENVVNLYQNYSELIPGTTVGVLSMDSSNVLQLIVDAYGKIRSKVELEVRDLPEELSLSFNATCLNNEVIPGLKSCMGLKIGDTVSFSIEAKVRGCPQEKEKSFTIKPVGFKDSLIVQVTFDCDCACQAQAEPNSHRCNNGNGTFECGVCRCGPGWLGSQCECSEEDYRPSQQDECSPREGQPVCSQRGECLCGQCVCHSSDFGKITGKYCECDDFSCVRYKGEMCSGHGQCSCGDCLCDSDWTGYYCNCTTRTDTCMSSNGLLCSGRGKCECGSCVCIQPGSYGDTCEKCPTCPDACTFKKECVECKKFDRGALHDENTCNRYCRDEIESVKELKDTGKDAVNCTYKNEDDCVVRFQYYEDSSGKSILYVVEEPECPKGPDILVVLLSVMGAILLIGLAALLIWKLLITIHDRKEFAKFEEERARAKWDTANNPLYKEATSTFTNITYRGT
Where a name gives a salt, the structure may show the parent alone.
Recorded remaining activity at 30 µM, one value per entry.
property label: remaining activity at 30 µM (%)

molecule="N=C(N)NCCCCOc1ccc2[nH]c(=O)c(CC(=O)O)cc2c1 [Example 238, Trifluoroacetic Acid Salt]" measurement_unit=% measured_value=100
molecule="N=C(N)NCCCOc1ccc2cc(CC(=O)O)c(=O)n(Cc3ccccc3)c2c1.O=C(O)C(F)(F)F [Example 239, Trifluoroacetic Acid Salt]" measurement_unit=% measured_value=70
molecule="COC(=O)CC1CCc2cc(OCCCNc3ncccn3)ccc2C1 (centres unmarked)" measurement_unit=% measured_value=102
molecule="N=C(N)NCCCCOc1ccc2c(c1)NC(=O)C(CCC(=O)O)C2 (centres unmarked)" measurement_unit=% measured_value=75.3
molecule=N=C(N)NCCCOc1ccc2[nH]c(=O)c(CC(=O)O)cc2c1 measurement_unit=% measured_value=100

* * *

target: Vitronectin Receptor (αVβ3) (Homo sapiens, UniProt P05106+P06756); construct: expressed in transfected cells; host or cells: 512P5 cells (plasma membrane preparation); test: Vitronectin Receptor (αVβ3) Binding Test Procedure; settings: reference RGD peptides; 125I-Echistatin 50 pM; read-out: IC50
pIC50: −log10 of the molar value. Ends that are not written are not given here.
Recorded pIC50, one value per entry.
property label: pIC50

substance="GRGDTP [GRGDTP, reference compound]" measurement_target="Vitronectin Receptor (αVβ3) (Homo sapiens, UniProt P05106+P06756)" measured_value=6.31
substance="GRGDNP [GRGDNP, reference compound]" measurement_target="Vitronectin Receptor (αVβ3) (Homo sapiens, UniProt P05106+P06756)" measured_value=6.63

* * *

Recorded remaining activity at 100 µM, one value per entry.
Target: αVβ3 integrin (Homo sapiens, UniProt P05106+P06756)
Construct: αVβ3-expressing cell lines are maintained by standard tissue culture techniques; endogenous in cells; host or cells: αVβ3-expressing cell lines
Experiment: Osteopontin-αVβ3 Cell Attachment Test Procedure
Format: cell-based
Details: @ 100 μM; % of maximal attachment; read-out: (αVβ3) CELL ATTACHMENT, % @ concentration
Procedure: Osteopontin-αVβ3 Cell Attachment Test Procedure Measuring the effect of compounds on the RGD-dependent attachment of cells to osteopontin mediated by the αVβ3 integrin. […] Incubation: 100 μL of diluted test compound was added to osteopontin-coated wells (in triplicate) followed by 100 μL of cell suspension; background cell attachment was determined in uncoated wells. […]
Structures can show the parent of a compound that is named as a salt.
property label: remaining activity at 100 µM (%)

molecule=N=C(N)NCCOc1ccc2cc(CC(=O)O)c(=O)[nH]c2c1 measurement_unit=% measured_value=96.8
molecule=N=C(N)NCCCOc1ccc2[nH]c(=O)c(CC(=O)O)cc2c1 measurement_unit=% measured_value=114
molecule="N=C(N)NCCCCOc1ccc2c(c1)CC(CC(=O)O)C(=O)N2 (centres unmarked)" measurement_unit=% measured_value=82
molecule="N=C(N)NCCCCOc1ccc2[nH]c(=O)c(CC(=O)O)cc2c1 [Example 238, Trifluoroacetic Acid Salt]" measurement_unit=% measured_value=97.9
molecule="N=C(N)NCCOc1ccc2c(c1)NC(=O)C(CCC(=O)O)C2 (centres unmarked)" measurement_unit=% measured_value=100
molecule="CCn1c(=O)c(CC(=O)O)cc2ccc(OCCCNC(=N)N)cc21.O=C(O)C(F)(F)F [Example 149, Trifluoroacetate]" measurement_unit=% measured_value=71.5
molecule="N=C(N)NCCCOc1ccc2c(c1)CC(CCC(=O)O)C(=O)N2 (centres unmarked)" measurement_unit=% measured_value=108
molecule="N=C(N)NCCCOc1ccc2cc(CC(=O)O)c(=O)n(Cc3ccccc3)c2c1.O=C(O)C(F)(F)F [Example 239, Trifluoroacetic Acid Salt]" measurement_unit=% measured_value=67.5
molecule="N=C(N)NCCCCOc1cccc2c1NC(=O)C(CC(=O)O)C2 (centres unmarked)" measurement_unit=% measured_value=91
molecule="Cl.N=C(N)NCCCCOc1ccc2cc(CC(=O)O)c(=O)[nH]c2c1 [Example 184, Hydrochloride]" measurement_unit=% measured_value=85
molecule="N=C(N)NCCCOc1ccc2c(c1)NC(=O)C(CCC(=O)O)C2 (centres unmarked)" measurement_unit=% measured_value=93
molecule="N=C(N)NCCCOc1ccc2cc(CC(=O)O)c(=O)[nH]c2c1.O=C(O)C(F)(F)F [Example 186, Trifluoroacetate]" measurement_unit=% measured_value=68.9
molecule="N=C(N)NCCCCCOc1cccc2c1NC(=O)C(CC(=O)O)C2 (centres unmarked)" measurement_unit=% measured_value=89
molecule="N=C(N)NCCOc1ccc2c(c1)CC(CCC(=O)O)C(=O)N2 (centres unmarked)" measurement_unit=% measured_value=100
molecule="N=C(N)NCCCOc1cccc2c1NC(=O)C(CC(=O)O)C2 (centres unmarked)" measurement_unit=% measured_value=85
molecule="N=C(N)NCCCCOc1ccc2c(c1)NC(=O)C(CCC(=O)O)C2 (centres unmarked)" measurement_unit=% measured_value=97
molecule="CCOC(=O)CC1CCc2cc(OCCCNC(=N)N)ccc2C1 (centres unmarked)" measurement_unit=% measured_value=100

* * *

biological target: αVβ3 integrin (Homo sapiens, UniProt P05106+P06756); construct: αVβ3-expressing cell lines are maintained by standard tissue culture techniques; endogenous in cells; host or cells: αVβ3-expressing cell lines; assay: Osteopontin-αVβ3 Cell Attachment Test Procedure; assay type: cell-based; conditions: attachment of cells to osteopontin; read-out: (αVβ3) IC50 CELL ATTACHMENT
Where a name gives a salt, the structure may show the parent alone.
property label: IC50 (µM)

compound="N=C(N)NCCCCNC(=O)c1ccc2c(c1)NC(=O)C(CC(=O)O)C2 (stereo not shown) [Example 202, Hydrochloride]" property_label=IC50 measured_value=86
compound="N=C(N)NCCCCOc1ccc2c(c1)CCCC(CC(=O)O)C2 (stereo not shown) [Example 63, Trifluoroacetate]" property_label=IC50 measured_value=32.8
compound="N=C(N)NCCCOc1ccc2c(c1)CCC(CC(=O)O)C2.O=C(O)C(F)(F)F (stereo not shown) [Example 37]" property_label=IC50 measured_value=8.9
compound="N=C(N)NCCOc1ccc2c(c1)CCCC(CC(=O)O)C2 (stereo not shown) [Example 61, Hydrochloride]" property_label=IC50 measured_value=62.2
compound="N=C(N)NCCCC=Cc1ccc2c(c1)NC(=O)C(CC(=O)O)C2.O=C(O)C(F)(F)F (stereo not shown) [Example 113, Trifluoroacetate]" property_label=IC50 measured_value=17.8
compound="Cl.N=C(N)NCCCOc1ccc2c(c1)NC(=O)C(CC(=O)O)C2 (stereo not shown) [Example 86, Hydrochloride]" property_label=IC50 measured_value=21.1
compound="N=C(N)NCCC=Cc1ccc2c(c1)NC(=O)C(CC(=O)O)C2.O=C(O)C(F)(F)F (stereo not shown) [Example 112, Trifluoroacetate]" property_label=IC50 measured_value=19.7
compound="N=C(N)NCCOc1ccc2c(c1)NC(=O)C(CC(=O)O)C2 (stereo not shown) [Example 85, Hydrochloride]" property_label=IC50 measured_value=111
compound="N=C(N)NCCNC(=O)c1ccc2c(c1)NC(=O)C(CC(=O)O)C2 (stereo not shown) [Example 200, Hydrochloride]" property_label=IC50 measured_value=145
compound="Cl.N=C(N)NCCC#Cc1ccc2c(c1)NC(=O)C(CC(=O)O)C2 (stereo not shown) [Example 100, Hydrochloride]" property_label=IC50 measured_value=79
compound="O=C(O)CC1CCc2cc(OCCCNC3=NCCCN3)ccc2C1 (stereo not shown) [Example 214]" property_label=IC50 measured_value=0.479
compound="N=C(N)NCCCCCc1ccc2c(c1)NC(=O)C(CC(=O)O)C2.O=C(O)C(F)(F)F (stereo not shown) [Example 122, Trifluoroacetate]" property_label=IC50 measured_value=8.3
compound="N=C(N)NCCCOc1ccc2c(c1)CCCC(CC(=O)O)C2.O=C(O)C(F)(F)F (stereo not shown) [Example 62, Trifluoroacetate]" property_label=IC50 measured_value=14
compound="N=C(N)NCCCNC(=O)c1ccc2c(c1)NC(=O)C(CC(=O)O)C2 (stereo not shown) [Example 201, Hydrochloride]" property_label=IC50 measured_value=25.4
compound="N=C(N)NCCCOc1ccc2c(c1)N(Cc1ccccc1)C(=O)C(CC(=O)O)C2 (stereo not shown) [Example 172]" property_label=IC50 measured_value=27.3
compound="N=C(N)NCCCCOc1ccc2c(c1)NC(=O)C(CC(=O)O)C2.O=C(O)C(F)(F)F (stereo not shown) [Example 84, Trifluoroacetate]" property_label=IC50 measured_value=24.5
